assay-system: Tyrosine-protein kinase SYK [355-635] (Homo sapiens)
pIC50: −log10 of the molar value.
Respond with Y for pIC50 values of 8 and above, N for values below.

Please indicate if the recorded pIC50 for COc1cccc(NC(=O)Cc2ccc(Nc3nccc(Nc4cccc5[nH]ncc45)n3)cc2)c1 [GTC000209A] meets or exceeds 8.
N

API: above_or_equal(metric=pIC50, cutoff=8) for item NC(=O)COc1ccc(Nc2nccc(Nc3cccc4[nH]ncc34)n2)cc1 [GTC000196A]
N

Given c1cc(Nc2ccnc(Nc3cccc4[nH]ncc34)n2)c2cn[nH]c2c1 [GTC000113A] , state whether its pIC50 is at least 8.
N

Tell me whether pIC50 is at least 8 here: O=C(O)COc1ccc(Nc2nccc(Nc3cccc4[nH]ncc34)n2)cc1 [GTC000198A]
N

Does the reported pIC50 for CN(c1nc(Nc2ccc3nn[nH]c3c2)ncc1F)c1cccc2[nH]ncc12 [GTC000265A] fall at or above the 8 mark?
Y

Decide: pIC50 of O=C1CNC(=O)N1c1cccc(Nc2nccc(Nc3cccc4[nH]ncc34)n2)c1 [GTC000167A] >= 8?
N

I'd appreciate it if you could say whether COCCCN(c1nc(Nc2cccc(C(N)=O)c2)ncc1F)c1cccc2[nH]ncc12 [GTC000346A] has pIC50 at least equal to 8.
N

// inclusive: pIC50 at least 8? input: COCCCN(c1nc(Nc2ccc3[nH]c(=O)[nH]c3c2)ncc1F)c1cccc2[nH]ncc12 [GTC000263A]
Y

State whether the measured pIC50 reaches 8, counting equality as reaching it, for CN(c1nc(Nc2cccc(S(C)(=O)=O)c2)ncc1F)c1cccc2[nH]ncc12 [GTC000359A]
N

Hi team, for CS(=O)(=O)c1cccc(Nc2ncc(F)c(N(CCCO)c3cccc4[nH]ncc34)n2)c1 [GTC000360A] , is the recorded pIC50 at or above 8?
N

Could you tell me if the measured pIC50 of Cc1nc(NC(=O)Cc2ccc(Nc3nccc(Nc4cccc5[nH]ncc45)n3)cc2)sc1C [GTC000215A] reaches 8 or more?
N

Determine whether measured pIC50 meets or exceeds 8 for CCN(CC)CCCN(c1ccnc(Nc2ccc3c(c2)C(=O)NS3(=O)=O)n1)c1cccc2[nH]ncc12 [GTC000332A]
N

Is reported pIC50 greater than or equal to 8 here: CCN(c1nc(Nc2cc(S(=O)(=O)NCC3CCCO3)ccc2OC)ncc1F)c1cccc2[nH]ncc12 (configuration not stated) [GTC000373A]
N

====

Give measured IC50 for each item. Keep answers brief.
Give the value, in units of µM, as a plain number.

The molecule COCCCN(c1ccnc(Nc2ccc3nn[nH]c3c2)n1)c1cccc2[nH]ncc12 [GTC000257A] , when measured on Tyrosine-protein kinase SYK [355-635] (Homo sapiens, UniProt P43405), yielded IC50 of 0.00504

For CCN(c1nc(Nc2ccc3c(c2)CCN3C(=O)C(F)(F)F)ncc1F)c1cccc2[nH]ncc12 [GTC000354A] on Tyrosine-protein kinase SYK [355-635] (Homo sapiens, UniProt P43405), measured IC50 was 0.059

Here O=c1[nH]c2ccc(Nc3nccc(Nc4cccc5[nH]ncc45)n3)cc2[nH]1 [GTC000115A] was tested on Tyrosine-protein kinase SYK [355-635] (Homo sapiens, UniProt P43405), and its IC50 came to 0.0783

Entry CCN(c1nc(Nc2cccc(O)c2)ncc1F)c1cccc2[nH]ncc12 [GTC000282A] ; assay system Tyrosine-protein kinase SYK [355-635] (Homo sapiens, UniProt P43405); IC50 recorded at 0.00794

Field IC50 (system: Tyrosine-protein kinase SYK [355-635] (Homo sapiens, UniProt P43405)) for entry CCN(c1nc(Nc2ccc3[nH]c(=O)oc3c2)ncc1F)c1cccc2[nH]ncc12 [GTC000361A] = 0.0723

Bench note, Tyrosine-protein kinase SYK [355-635] (Homo sapiens, UniProt P43405): entry Cc1ncoc1-c1cccc(Nc2ncc(F)c(N(C)c3cccc4[nH]ncc34)n2)c1 [GTC000316A] , its IC50 = 0.0164

// IC50 (Tyrosine-protein kinase SYK [355-635] (Homo sapiens, UniProt P43405)) for CCN(c1nc(Nc2ccc3c(c2)C(C)(C)C(=O)N3)ncc1F)c1cccc2[nH]ncc12 [GTC000302A] = 0.0132

Per the reported Tyrosine-protein kinase SYK [355-635] (Homo sapiens, UniProt P43405) data, NS(=O)(=O)c1cccc(Nc2ncc(F)c(N(CCCO)c3cccc4[nH]ncc34)n2)c1 [GTC000284A] has IC50 of 0.00879

Observed IC50 on Tyrosine-protein kinase SYK [355-635] (Homo sapiens, UniProt P43405), entry COCCCN(c1ccnc(Nc2ccc3[nH]c(=O)[nH]c3c2)n1)c1cccc2[nH]ncc12 [GTC000246A] , equals 0.0036

// returns IC50 for O=C(COc1ccc(Nc2nccc(Nc3cccc4[nH]ncc34)n2)cc1)NCCCO [GTC000192A] with Tyrosine-protein kinase SYK [355-635] (Homo sapiens, UniProt P43405); value = 0.611

Assay Tyrosine-protein kinase SYK [355-635] (Homo sapiens, UniProt P43405), sample CS(=O)(=O)Nc1ccc(Nc2nccc(Nc3cccc4[nH]ncc34)n2)cc1 [GTC000217A] , IC50 read: 0.414

Observed IC50, Tyrosine-protein kinase SYK [355-635] (Homo sapiens, UniProt P43405), COC(=O)COc1ccc(Nc2nccc(Nc3cccc4[nH]ncc34)n2)cc1 [GTC000199A] : 0.49

Bench note, Tyrosine-protein kinase SYK [355-635] (Homo sapiens, UniProt P43405): Cc1ncoc1-c1cccc(Nc2nccc(N(CCCO)c3cccc4[nH]ncc34)n2)c1 [GTC000224A] , IC50 reads 0.0111

# lookup: CCN(c1nc(Nc2ccc(C(N)=O)cc2)ncc1F)c1cccc2[nH]ncc12 [GTC000260A] on Tyrosine-protein kinase SYK [355-635] (Homo sapiens, UniProt P43405), IC50 = 0.00548

Reported IC50 (Tyrosine-protein kinase SYK [355-635] (Homo sapiens, UniProt P43405)) for entry Cc1nc(NS(=O)(=O)Cc2ccc(Nc3nccc(Nc4cccc5[nH]ncc45)n3)cc2)sc1C [GTC000201A] is 1.1

Known value: Tyrosine-protein kinase SYK [355-635] (Homo sapiens, UniProt P43405) IC50 of the molecule COc1ccc(NC(=O)Cc2ccc(Nc3nccc(Nc4cccc5[nH]ncc45)n3)cc2)cc1 [GTC000208A] equals 0.849

Entry CC(C)(C)c1ccc(Nc2nccc(Nc3cccc4[nH]ncc34)n2)cc1 [GTC000176A] : IC50 on Tyrosine-protein kinase SYK [355-635] (Homo sapiens, UniProt P43405) = 0.508

Note to self: IC50 of O=S1(=O)NCc2ccc(Nc3nccc(N(CCCCO)c4cccc5[nH]ncc45)n3)cc21 [GTC000241A] with Tyrosine-protein kinase SYK [355-635] (Homo sapiens, UniProt P43405) was 0.0029

// assay Tyrosine-protein kinase SYK [355-635] (Homo sapiens, UniProt P43405), entry CC(=O)N(C)c1ccc(Nc2nccc(Nc3cccc4[nH]ncc34)n2)cc1 [GTC000175A] , IC50 value = 0.793

Considering NC(=O)c1cccc(Nc2ncc(F)c(N(CCCO)c3cccc4[nH]ncc34)n2)c1 [GTC000344A] , its IC50 with Tyrosine-protein kinase SYK [355-635] (Homo sapiens, UniProt P43405) was recorded as 0.0318

Lab entry: Tyrosine-protein kinase SYK [355-635] (Homo sapiens, UniProt P43405) assay, molecule CNS(=O)(=O)Cc1ccc(Nc2nccc(Nc3cccc4[nH]ncc34)n2)cc1 [GTC000195A] , IC50 = 0.426

Tyrosine-protein kinase SYK [355-635] (Homo sapiens, UniProt P43405) IC50 of CC(C)ONS(=O)(=O)c1cccc(Nc2nccc(Nc3cccc4[nH]ncc34)n2)c1 [GTC000178A] is 0.685

Summary line: NCCCN(c1ccnc(Nc2ccc3[nH]c(=O)[nH]c3c2)n1)c1cccc2[nH]ncc12 [GTC000293A] , Tyrosine-protein kinase SYK [355-635] (Homo sapiens, UniProt P43405), reported IC50 = 0.00929

Entry CCN(c1nc(Nc2ccc(C)c(S(N)(=O)=O)c2)ncc1F)c1cccc2[nH]ncc12 [GTC000349A] under Tyrosine-protein kinase SYK [355-635] (Homo sapiens, UniProt P43405) had IC50 of 0.0359

Tyrosine-protein kinase SYK [355-635] (Homo sapiens, UniProt P43405) data for CN(c1nc(Nc2ccc3c(c2)COC(=O)N3)ncc1F)c1cccc2[nH]ncc12 [GTC000248A] ; its IC50: 0.0039

Item CS(=O)(=O)NCCCN(c1ccnc(Nc2ccc3[nH]c(=O)[nH]c3c2)n1)c1cccc2[nH]ncc12 [GTC000239A] was tested on Tyrosine-protein kinase SYK [355-635] (Homo sapiens, UniProt P43405); the reported IC50 is 0.00316

Considering Cc1nc2cc(Nc3nccc(Nc4cccc5[nH]ncc45)n3)ccc2s1 [GTC000168A] , its IC50 with Tyrosine-protein kinase SYK [355-635] (Homo sapiens, UniProt P43405) was recorded as 0.468

Item FC(F)(F)c1ccc(Nc2nccc(Nc3cccc4[nH]ncc34)n2)cc1 [GTC000136A] ; assay system Tyrosine-protein kinase SYK [355-635] (Homo sapiens, UniProt P43405); IC50 reported as 0.206

Short answer on Tyrosine-protein kinase SYK [355-635] (Homo sapiens, UniProt P43405) for CCN(c1nc(Nc2ccc(C)c(S(=O)(=O)NCCO)c2)ncc1F)c1cccc2[nH]ncc12 [GTC000343A] , IC50: 0.0327

Reading of IC50 for COCCCN(c1nc(Nc2cccc(-c3ocnc3C)c2)ncc1F)c1cccc2[nH]ncc12 [GTC000315A] with Tyrosine-protein kinase SYK [355-635] (Homo sapiens, UniProt P43405): 0.0163

Simply: COCCN(c1ccnc(Nc2ccc3nn[nH]c3c2)n1)c1cccc2[nH]ncc12 [GTC000322A] , Tyrosine-protein kinase SYK [355-635] (Homo sapiens, UniProt P43405), IC50 = 0.0205

# O=S(=O)(Cc1cccc(Nc2nccc(Nc3cccc4[nH]ncc34)n2)c1)NCCCO [GTC000193A] with Tyrosine-protein kinase SYK [355-635] (Homo sapiens, UniProt P43405): IC50 is 0.575

Short answer on Tyrosine-protein kinase SYK [355-635] (Homo sapiens, UniProt P43405) for CCN(c1nc(Nc2ccc3c(c2)CCN3C(C)=O)ncc1F)c1cccc2[nH]ncc12 [GTC000319A] , IC50: 0.0182
